Values were extracted from paper PMC9516332.

Please go through the items and note down their inhibition at 1 µM.
- testedSystem: panel of 255 wild-type kinases (Homo sapiens)
- experiment: Kinase panel profiling at 1 µmol/L (MSA or IMAP), percentage inhibition
- Assay type: biochemical
- details: CDK2/CycE1 kinase assay; 1 µmol/L single concentration; read-out: %-inhibition CDK2/CycE1
# value in %; strip the unit string

Problem: Quote panel of 255 wild-type kinases (Homo sapiens) inhibition at 1 µM for entry `CN1CCN(c2ccc(C(=O)Nc3n[nH]c4ccc(Cc5cc(F)cc(F)c5)cc34)c(NC3CCOCC3)c2)CC1` .
Result: 11

Problem: Using panel of 255 wild-type kinases (Homo sapiens) as the test system, report measured inhibition at 1 µM of `CCN1CCN(c2ccc(Nc3cc(N(C)C(=O)Nc4c(Cl)c(OC)cc(OC)c4Cl)ncn3)cc2)CC1` .
Result: -33

Problem: Consider the compound `Cc1nc(NC(=O)N2CCC[C@H]2C(N)=O)sc1-c1ccnc(C(C)(C)C(F)(F)F)c1` tested on panel of 255 wild-type kinases (Homo sapiens); state its inhibition at 1 µM.
Result: -10

Problem: Would you please give the reported inhibition at 1 µM of `Cn1cc(-c2cc3c(N4CCN(c5ncc([C@@](C)(N)c6ccc(F)cc6)cn5)CC4)ncnn3c2)cn1` with panel of 255 wild-type kinases (Homo sapiens)?
Result: -37

Problem: Answer with inhibition at 1 µM of `COc1cc2ncnc(Nc3ccc(F)c(Cl)c3)c2cc1NC(=O)/C=C/CN1CCCCC1` measured for panel of 255 wild-type kinases (Homo sapiens).
Result: -16

Problem: Please report inhibition at 1 µM with panel of 255 wild-type kinases (Homo sapiens) for item `CCN1C(=O)N(c2c(F)c(OC)cc(OC)c2F)Cc2cnc3[nH]c(CN4CCOCC4)cc3c21` .
Result: 7

Problem: Recall the reported inhibition at 1 µM of `O=C(Nc1cnn2ccc(N3CCC[C@@H]3c3cc(F)ccc3F)nc12)N1CC[C@H](O)C1` when tested on panel of 255 wild-type kinases (Homo sapiens).
Result: -18

Problem: Write down measured inhibition at 1 µM (panel of 255 wild-type kinases (Homo sapiens)) for this compound. `Cn1cnc2c(F)c(Nc3ccc(Br)cc3F)c(C(=O)NOCCO)cc21`
Result: -14
